Reference for the values: patent US20260035367A1

Would you mind telling me the reported PKC-theta/PKC-delta selectivity of each entry?
- test-target: Recombinant human PKC-delta (His-tagged 345-676) (Homo sapiens)
- Construct: PKC-delta (His-tagged 345-676); His
- Sequence (Q05655 345-676): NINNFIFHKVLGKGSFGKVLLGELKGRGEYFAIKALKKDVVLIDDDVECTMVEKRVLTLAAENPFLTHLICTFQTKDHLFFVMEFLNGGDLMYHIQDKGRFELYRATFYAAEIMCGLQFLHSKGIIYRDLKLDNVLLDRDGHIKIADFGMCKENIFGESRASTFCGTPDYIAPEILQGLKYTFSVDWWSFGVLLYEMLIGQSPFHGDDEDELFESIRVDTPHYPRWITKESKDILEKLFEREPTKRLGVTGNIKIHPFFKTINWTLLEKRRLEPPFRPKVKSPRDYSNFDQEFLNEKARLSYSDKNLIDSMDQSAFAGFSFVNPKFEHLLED
- test-details: PKC-delta inhibition assay (HTRF KinEASE kit)
- Format: biochemical
- measurement-setup: ratio, PKC-theta vs PKC-delta HTRF
Where a name gives a salt, the structure may show the parent alone.
// print number alone

stdin: What value of measured PKC-theta/PKC-delta selectivity is listed for C[C@@H]1CNC[C@@H](C)N1c1cc(C(F)(F)F)cc(-c2ccnc3c2C(C)(C)C(=O)N3)n1 ?
stdout: 28

stdin: What value of measured PKC-theta/PKC-delta selectivity is listed for CC1(C)C(=O)Nc2nccc(-c3cc(C(F)(F)F)cc(N4CCCNCC4)n3)c21 ?
stdout: 21

stdin: What value of measured PKC-theta/PKC-delta selectivity is listed for C[C@@H]1CNCCN1c1cc(C(F)(F)F)cc(-c2ccnc3c2[C@](C)(O)C(=O)N3)n1 (single isomer, unassigned) ?
stdout: 9

stdin: What value of measured PKC-theta/PKC-delta selectivity is listed for CC[C@]1(C)C(=O)Nc2nccc(-c3cc(C(C)(F)F)cc(N4CCCNCC4)n3)c21 (single isomer, unassigned) ?
stdout: 13

stdin: What value of measured PKC-theta/PKC-delta selectivity is listed for CC1(C)C(=O)Nc2ncc(C#N)c(-c3cc(F)cc(N4CCNCC4)c3)c21 ?
stdout: 2

stdin: What value of measured PKC-theta/PKC-delta selectivity is listed for O=c1[nH]c2nccc(-c3cccc(N4CCNCC4)c3)c2[nH]1 ?
stdout: 2

stdin: What value of measured PKC-theta/PKC-delta selectivity is listed for CC1(C)C(=O)Nc2nccc(-c3cccc(N(CC4COC4)C4CCCNC4)c3)c21 (stereo not shown) ?
stdout: 2

stdin: What value of measured PKC-theta/PKC-delta selectivity is listed for CC1(C)C(=O)Nc2nccc(-c3cc(C(F)(F)F)cc(N4CCNC5(CC5)C4)n3)c21 ?
stdout: 14

stdin: What value of measured PKC-theta/PKC-delta selectivity is listed for CC1(C)C(=O)Nc2nccc(-c3cc(F)cc(CN4CCNCC4)c3)c21 [Example 32, dihydrochloride] ?
stdout: 3

stdin: What value of measured PKC-theta/PKC-delta selectivity is listed for CC1C(=O)Nc2ncnc(-c3cccc(N4CCNCC4)c3)c21 (stereo not shown) ?
stdout: 1

stdin: What value of measured PKC-theta/PKC-delta selectivity is listed for CC[C@H]1CN(c2ccc(Cl)c(-c3ccnc4c3C(O)(CC)C(=O)N4)n2)CCN1 (stereo partly shown) ?
stdout: 4

stdin: What value of measured PKC-theta/PKC-delta selectivity is listed for CC[C@H]1CN(c2cc(C(F)(F)F)cc(-c3ccnc4c3[C@](C)(OC)C(=O)N4)n2)CCN1 (single isomer, unassigned) ?
stdout: 22

stdin: What value of measured PKC-theta/PKC-delta selectivity is listed for C[C@@H]1CN(c2cc(C(F)(F)F)cc(-c3ccnc4c3C(C)(C)C(=O)N4)n2)[C@H](C)CN1 ?
stdout: 20

stdin: What value of measured PKC-theta/PKC-delta selectivity is listed for C[C@@H]1CN(c2cc(C(C)(F)F)cc(-c3ccnc4c3C(C)(C)C(=O)N4)n2)CCCN1 ?
stdout: 24

stdin: What value of measured PKC-theta/PKC-delta selectivity is listed for CC1C(=O)Nc2nccc(-c3cc(N4CCNCC4)cc(C(F)(F)F)c3)c21 (stereo not shown) ?
stdout: 7

stdin: What value of measured PKC-theta/PKC-delta selectivity is listed for C[C@H](O)[C@@H]1CN(c2cc(C(F)(F)F)cc(-c3ccnc4c3C(C)(C)C(=O)N4)n2)CCN1 ?
stdout: 12
